Test system: Mycobacterium tuberculosis
Test: Minimum inhibitory concentration against H37Rv stain of Mycobacterium tuberculosis using Agar Microdilution
Type: functional
A collection of compounds and their measured MIC
Numbers only here, please. The scale is µg/mL.

q: Please provide the recorded MIC for `O=C(c1ccc(OCc2cccnc2)cc1)C1CC1` , tested on Mycobacterium tuberculosis.
a: 25

q: Give the reported MIC for `c1cncc(COc2ccc(CC3CC3)cc2)c1` (system: Mycobacterium tuberculosis).
a: 25

# context switch: different compound, same MIC
q: Tell me reported MIC for `c1ccc(COc2ccc(CC3CC3)cc2)cc1` , tested with Mycobacterium tuberculosis.
a: 12.5

----------
Test system: Mycobacterium tuberculosis
Test: Minimum inhibitory concentration against H37Rv stain of Mycobacterium tuberculosis using Agar Microdilution
Type: functional
test-readout: MIC (µg/mL)
The figure you give is taken to be in µg/mL; do not add the unit.

q: Would you kindly share the measured MIC for `O=C(c1ccc(OCCc2ccco2)cc1)C1CC1` ?
a: 25

q: Can you look up the measured MIC of `O=C(c1ccc(OCC2CCCC2)cc1)C1CC1` for me?
a: 25

q: Would you mind telling me what MIC value was observed for OC(c1ccc(OCc2ccccc2)cc1)C1CC1 (configuration not stated) ?
a: 25

q: For the compound COc1ccc(COc2ccc(C(O)C3CC3)cc2)cc1 (configuration not stated) , what MIC is on record?
a: 3.12

q: Return reported MIC; argument: `O=C(c1ccc(OCc2ccncc2)cc1)C1CC1`
a: 12.5

Continue with the compound presented below.
q: Quick one: MIC of `O=C(c1ccc(OCc2ccccc2Cl)cc1)C1CC1` ?
a: 12.5

----------
Test system: Mycobacterium tuberculosis
Experiment: Minimum inhibitory concentration against H37Ra stain of Mycobacterium tuberculosis using MABA method
Assay type: functional
Listed here are molecules together with their documented MIC.

q: Suppose we examine the molecule OC(c1ccc(OCc2ccc(F)cc2)cc1)C1CC1 (stereo unspecified) ; what MIC value has been reported?
a: 25 mg/L

Next:
q: MIC for `O=C(c1ccc(OCC2CCCC2)cc1)C1CC1` ?
a: > 25 mg/L

q: Name the recorded MIC for COc1ccc(COc2ccc(C(O)C3CC3)cc2)cc1OC (stereo unspecified) .
a: 3.12 mg/L

q: Using the record for `O=C(c1ccc(OCC2CCCCC2)cc1)C1CC1` , report its MIC.
a: > 25 mg/L

q: Reported MIC for `O=C(c1ccc(OCc2ccccc2Cl)cc1)C1CC1` : what is it?
a: > 25 mg/L

q: Reported MIC, molecule OC(c1ccc(OCc2ccccc2)cc1)C1CC1 (stereo unspecified) : ____
a: > 50 mg/L

q: Quick one: MIC for `COc1ccc(COc2ccc(C(=O)C3CC3)cc2)cc1OC` ?
a: 25 mg/L

q: I am curious: what MIC value has been reported for `O=C(c1ccc(OCc2cccnc2)cc1)C1CC1` ?
a: > 25 mg/L

q: Name the recorded MIC for OC(c1ccc(OCc2ccncc2)cc1)C1CC1 (stereo unspecified) .
a: > 25 mg/L

q: Return reported MIC; argument: `O=C(c1ccc(OCc2ccc(Cl)cc2)cc1)C1CC1`
a: > 25 mg/L

----------
Test system: Mycobacterium tuberculosis
Assay: Minimum inhibitory concentration against H37Rv stain of Mycobacterium tuberculosis using Agar Microdilution
Type: functional
// reported MIC per item

Consider the worked cases shown below.
q: May I ask what MIC has been recorded for OC(c1ccc(OCC2CCCC2)cc1)C1CC1 (stereo not drawn) ?
a: 3.12 µg/mL

q: // returns reported MIC for input `O=C(c1ccc(OCc2ccccc2)cc1)C1CC1`
a: 6.25 µg/mL

q: Reported MIC for `COc1ccc(COc2ccc(C(=O)C3CC3)cc2)cc1OC` : what is it?
a: 12.5 µg/mL

q: Which measured MIC value corresponds to COc1ccc(COc2ccc(C(O)C3CC3)cc2)cc1OC (stereo not drawn) ?
a: > 50 µg/mL

q: Could you share which MIC value was measured for `O=C(c1ccc(OCc2ccc(Cl)c(Cl)c2)cc1)C1CC1` ?
a: 25 µg/mL

q: Quick check: MIC of OC(c1ccc(OCc2ccco2)cc1)C1CC1 (stereo not drawn) ?
a: > 25 µg/mL

Others:
q: Field request: MIC | item: `COc1ccc(COc2ccc(CC3CC3)cc2)cc1`
a: 25 µg/mL

q: Recorded MIC of `Fc1ccc(COc2ccc(CC3CC3)cc2)cc1` , please.
a: 12.5 µg/mL

q: What does the record list as MIC for OC(c1ccc(OCc2ccc(F)cc2)cc1)C1CC1 (stereo not drawn) ?
a: 6.25 µg/mL

----------
Recorded MIC values for a group of compounds are listed next.
Tested on: Mycobacterium tuberculosis
Test: Minimum inhibitory concentration against H37Rv stain of Mycobacterium tuberculosis using Agar Microdilution
Assay type: functional

q: Request the reported MIC associated with `Clc1ccccc1COc1ccc(CC2CC2)cc1`
a: > 50 µg/mL

q: // MIC lookup, key: `O=C(c1ccc(OCC2CCCCC2)cc1)C1CC1`
a: > 25 µg/mL

q: For the compound OC(c1ccc(OCc2cccnc2)cc1)C1CC1 (stereo not drawn) , what MIC is on record?
a: > 25 µg/mL

----------
System: Mycobacterium tuberculosis
Experiment: Minimum inhibitory concentration against H37Ra stain of Mycobacterium tuberculosis using MABA method
Type: functional
test-readout: MIC

Examples from the recorded data:
q: Fill in the blank: the reported MIC of `Clc1ccccc1COc1ccc(CC2CC2)cc1` is ____.
a: > 25 µg/mL

q: Reported MIC, compound OC(c1ccc(OCc2ccco2)cc1)C1CC1 (stereo unspecified) : ____
a: > 25 µg/mL

q: Look up MIC: `O=C(c1ccc(OCCc2ccco2)cc1)C1CC1`
a: 25 µg/mL

New cases:
q: Which MIC is listed for OC(c1ccc(OCc2ccccc2Cl)cc1)C1CC1 (stereo unspecified) ?
a: > 25 µg/mL

q: Could you share which MIC value was measured for `O=C(c1ccc(OCc2ccccc2)cc1)C1CC1` ?
a: 25 µg/mL

q: Recorded MIC of `O=C(c1ccc(OCc2ccncc2)cc1)C1CC1` , please.
a: > 25 µg/mL

q: Given the compound `c1cncc(COc2ccc(CC3CC3)cc2)c1` , what is its reported MIC?
a: > 25 µg/mL

q: # input compound: OC(c1ccc(OCc2cccnc2)cc1)C1CC1 (stereo unspecified) ; wanted: its MIC
a: > 25 µg/mL

q: Which MIC value is on record for COc1ccc(COc2ccc(C(O)C3CC3)cc2)cc1 (stereo unspecified) ?
a: > 50 µg/mL

q: Give its MIC value. Item: `O=C(c1ccc(OCc2ccc(Cl)c(Cl)c2)cc1)C1CC1`
a: > 25 µg/mL

q: # lookup: MIC of `COc1ccc(COc2ccc(C(=O)C3CC3)cc2)cc1`
a: > 50 µg/mL

q: Form field: reported MIC of OC(c1ccc(OCC2CCCC2)cc1)C1CC1 (stereo unspecified)
a: 25 µg/mL

q: Would you mind telling me what MIC value was observed for `COc1ccc(COc2ccc(CC3CC3)cc2)cc1OC` ?
a: 12.5 µg/mL

q: Can you look up the measured MIC of `O=C(c1ccc(OCc2ccc(F)cc2)cc1)C1CC1` for me?
a: > 25 µg/mL

q: Need MIC of `COc1ccc(COc2ccc(CC3CC3)cc2)cc1` , thanks.
a: > 25 µg/mL

q: Could you share which MIC value was measured for `c1ccc(COc2ccc(CC3CC3)cc2)cc1` ?
a: > 50 µg/mL

----------
System: Mycobacterium tuberculosis
Assay: Minimum inhibitory concentration against H37Rv stain of Mycobacterium tuberculosis using Agar Microdilution
Assay type: functional
test-readout: MIC
Please answer in the form of a number followed by its unit of measurement.

Completed entries (count: 3):
q: Please look up its MIC: `COc1ccc(COc2ccc(CC3CC3)cc2)cc1OC`
a: 25 µg/mL

q: Which value of MIC has been reported for `O=C(c1ccc(OCc2ccc(F)cc2)cc1)C1CC1` in the records?
a: 12.5 µg/mL

q: Would you kindly share the measured MIC for `COc1ccc(COc2ccc(C(=O)C3CC3)cc2)cc1` ?
a: 12.5 µg/mL

// moving on: another record for MIC
q: State the recorded MIC for this entry: `O=C(c1ccc(OCc2ccc(Cl)cc2)cc1)C1CC1`
a: 25 µg/mL

Values from ChEMBL document CHEMBL1142851
